study.target: UniProt:Q6V1X1
Sequence (Q6V1X1 whole entry): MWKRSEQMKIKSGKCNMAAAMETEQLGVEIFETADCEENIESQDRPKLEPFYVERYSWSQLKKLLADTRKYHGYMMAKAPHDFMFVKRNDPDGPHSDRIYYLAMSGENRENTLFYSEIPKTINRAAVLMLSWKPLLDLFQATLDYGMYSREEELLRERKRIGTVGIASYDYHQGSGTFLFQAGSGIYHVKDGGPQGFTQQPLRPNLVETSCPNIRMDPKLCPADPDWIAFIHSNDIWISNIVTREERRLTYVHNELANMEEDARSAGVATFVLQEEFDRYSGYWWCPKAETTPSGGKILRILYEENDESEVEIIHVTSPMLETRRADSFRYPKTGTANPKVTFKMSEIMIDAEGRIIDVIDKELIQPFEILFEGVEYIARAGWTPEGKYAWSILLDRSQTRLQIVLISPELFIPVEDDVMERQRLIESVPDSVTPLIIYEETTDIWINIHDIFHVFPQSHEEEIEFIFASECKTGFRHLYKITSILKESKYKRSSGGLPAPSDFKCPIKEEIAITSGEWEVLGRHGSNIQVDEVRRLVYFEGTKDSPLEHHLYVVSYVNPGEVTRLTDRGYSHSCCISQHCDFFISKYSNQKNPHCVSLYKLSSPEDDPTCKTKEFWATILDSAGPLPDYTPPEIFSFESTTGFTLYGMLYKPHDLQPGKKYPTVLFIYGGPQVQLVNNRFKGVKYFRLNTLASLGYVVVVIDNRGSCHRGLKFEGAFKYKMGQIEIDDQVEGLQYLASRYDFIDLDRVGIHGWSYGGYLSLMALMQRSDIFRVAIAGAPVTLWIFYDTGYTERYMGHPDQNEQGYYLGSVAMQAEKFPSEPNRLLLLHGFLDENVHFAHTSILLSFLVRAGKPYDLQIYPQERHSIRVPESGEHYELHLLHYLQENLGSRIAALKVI
As shown below, each of these compounds has a reported IC50 value.
Report the value in µM with no unit label.

• N#Cc1ccc(N2CC[C@H](c3cc(F)c(F)cc3F)[C@@H](N)C2)nc1 = 5.8
• N[C@H]1CN(c2ccccn2)CC[C@@H]1c1cc(F)c(F)cc1F = 34
• N[C@H]1CN(c2cnc3nccnc3n2)CC[C@@H]1c1cc(F)c(F)cc1F.O=C(O)C(F)(F)F = 54

Note: attention shifts to another entry.
### Prompt Give UniProt:Q6V1X1 IC50 for the following compound: Cc1nc2ccc(N3CC[C@H](c4cc(F)c(F)cc4F)[C@@H](N)C3)nc2c(=O)[nH]1
### Response 80

meta.source: ChEMBL document CHEMBL1145410
